- Experimental protocol: Plasma concentration in cannula implanted rat at 5 mg/kg administered through oral gavage after 24 hrs by LC-MS/MS analysis
- Assay type: ADME, organism-based
concentration at 24 h for assorted compounds
State the result as a value with its unit after it.

Below, 2 compounds whose answers are already recorded.
C=C(C)[C@@H]1CC[C@]2(C(=O)NCCc3ccccn3)CC[C@]3(C)[C@H](CC[C@@H]4[C@@]5(C)CC=C(c6ccc(C(=O)O)cc6)C(C)(C)[C@@H]5CC[C@]43C)[C@@H]12 | 5 nM
C=C(C)[C@@H]1CC[C@]2(C(=O)NCCC(=O)O)CC[C@]3(C)[C@H](CC[C@@H]4[C@@]5(C)CC=C(c6ccc(C(=O)O)cc6)C(C)(C)[C@@H]5CC[C@]43C)[C@@H]12 | 137 nM

Now look at this entry.
*Q* Would you mind telling me what concentration at 24 h value was observed for `C=C(C)[C@@H]1CC[C@]2(C(=O)N(C)CCN(C)C)CC[C@]3(C)[C@H](CC[C@@H]4[C@@]5(C)CC=C(c6ccc(C(=O)O)cc6)C(C)(C)[C@@H]5CC[C@]43C)[C@@H]12` ?
*A* 108 nM

====

AUC(0-t) at 6 h for assorted compounds
- Experimental protocol: AUC (0 to 6 hrs) in cannula implanted rat at 5 mg/kg administered through oral gavage after 24 hrs by LC-MS/MS analysis
- Assay type: ADME, organism-based
- Parameters: dose 5 mg/kg, time < 6 hr, route oral
- Particulars: in vivo
Write the value in µM·h as a bare number.

*Q* Would you mind telling me what AUC(0-t) at 6 h value was observed for `C=C(C)[C@@H]1CC[C@]2(C(=O)N(C)CCN(C)C)CC[C@]3(C)[C@H](CC[C@@H]4[C@@]5(C)CC=C(c6ccc(C(=O)O)cc6)C(C)(C)[C@@H]5CC[C@]43C)[C@@H]12` ?
*A* 1.42

====

- Test system: Human immunodeficiency virus 1
- Experimental protocol: Antiviral activity against wild type HIV1 NL4-3 infected in human MT2 cells after 4 to 5 days by dual-luciferase reporter gene assay in presence of human serum albumin
- Type: functional, organism-based
- Particulars: Human immunodeficiency virus 1, NL4-3, MT2
pEC50 for assorted molecules
Recall that pEC50 is obtained by taking minus log10 of the concentration measured in molar.

Below, 6 molecules whose answers are already recorded.
C=C(C)[C@@H]1CC[C@]2(C(=O)NS(=O)(=O)C3CC3)CC[C@]3(C)[C@H](CC[C@@H]4[C@@]5(C)CC=C(c6ccc(C(=O)O)cc6)C(C)(C)[C@@H]5CC[C@]43C)[C@@H]12 | 6.78
C=C(C)[C@@H]1CC[C@]2(C(=O)NCCN3CCOCC3)CC[C@]3(C)[C@H](CC[C@@H]4[C@@]5(C)CC=C(c6ccc(C(=O)O)cc6)C(C)(C)[C@@H]5CC[C@]43C)[C@@H]12 | 7.55
C=C(C)[C@@H]1CC[C@]2(C(=O)NCCO)CC[C@]3(C)[C@H](CC[C@@H]4[C@@]5(C)CC=C(c6ccc(C(=O)O)cc6)C(C)(C)[C@@H]5CC[C@]43C)[C@@H]12 | 7.41
C=C(C)[C@@H]1CC[C@]2(C(=O)NCCNC(C)=O)CC[C@]3(C)[C@H](CC[C@@H]4[C@@]5(C)CC=C(c6ccc(C(=O)O)cc6)C(C)(C)[C@@H]5CC[C@]43C)[C@@H]12 | 7.66
C=C(C)[C@@H]1CC[C@]2(C(=O)N(C)CCN(C)C)CC[C@]3(C)[C@H](CC[C@@H]4[C@@]5(C)CC=C(c6ccc(C(=O)O)cc6)C(C)(C)[C@@H]5CC[C@]43C)[C@@H]12 | 7.77
C=C(C)[C@@H]1CC[C@]2(C(=O)NCCC(=O)O)CC[C@]3(C)[C@H](CC[C@@H]4[C@@]5(C)CC=C(c6ccc(C(=O)O)cc6)C(C)(C)[C@@H]5CC[C@]43C)[C@@H]12 | 6.35

*Q* Would you mind telling me what pEC50 value was observed for `C=C(C)[C@@H]1CC[C@]2(C(=O)NS(C)(=O)=O)CC[C@]3(C)[C@H](CC[C@@H]4[C@@]5(C)CC=C(c6ccc(C(=O)O)cc6)C(C)(C)[C@@H]5CC[C@]43C)[C@@H]12` ?
*A* 5.82

*Q* Another: `C=C(C)[C@@H]1CC[C@]2(C(=O)N3CCCCC3)CC[C@]3(C)[C@H](CC[C@@H]4[C@@]5(C)CC=C(c6ccc(C(=O)O)cc6)C(C)(C)[C@@H]5CC[C@]43C)[C@@H]12`
*A* 5.80

*Q* Another: `C=C(C)[C@@H]1CC[C@]2(C(=O)NCc3ccccn3)CC[C@]3(C)[C@H](CC[C@@H]4[C@@]5(C)CC=C(c6ccc(C(=O)O)cc6)C(C)(C)[C@@H]5CC[C@]43C)[C@@H]12`
*A* 8.05

*Q* Another: `C=C(C)[C@@H]1CC[C@]2(C(=O)NCCCN(C)C)CC[C@]3(C)[C@H](CC[C@@H]4[C@@]5(C)CC=C(c6ccc(C(=O)O)cc6)C(C)(C)[C@@H]5CC[C@]43C)[C@@H]12`
*A* 8.52

*Q* Another: `C=C(C)[C@@H]1CC[C@]2(C(=O)NC)CC[C@]3(C)[C@H](CC[C@@H]4[C@@]5(C)CC=C(c6ccc(C(=O)O)cc6)C(C)(C)[C@@H]5CC[C@]43C)[C@@H]12`
*A* 7.55
